- target.under.test: human ether-a-go-go-related-gene (hERG)-encoded potassium channel (Homo sapiens, UniProt Q12809)
- Construct: expressed in transfected cells; host or cells: Human embryonic kidney (HEK) cells, grown under Geneticin G418 selection
- Sequence (Q12809 whole entry): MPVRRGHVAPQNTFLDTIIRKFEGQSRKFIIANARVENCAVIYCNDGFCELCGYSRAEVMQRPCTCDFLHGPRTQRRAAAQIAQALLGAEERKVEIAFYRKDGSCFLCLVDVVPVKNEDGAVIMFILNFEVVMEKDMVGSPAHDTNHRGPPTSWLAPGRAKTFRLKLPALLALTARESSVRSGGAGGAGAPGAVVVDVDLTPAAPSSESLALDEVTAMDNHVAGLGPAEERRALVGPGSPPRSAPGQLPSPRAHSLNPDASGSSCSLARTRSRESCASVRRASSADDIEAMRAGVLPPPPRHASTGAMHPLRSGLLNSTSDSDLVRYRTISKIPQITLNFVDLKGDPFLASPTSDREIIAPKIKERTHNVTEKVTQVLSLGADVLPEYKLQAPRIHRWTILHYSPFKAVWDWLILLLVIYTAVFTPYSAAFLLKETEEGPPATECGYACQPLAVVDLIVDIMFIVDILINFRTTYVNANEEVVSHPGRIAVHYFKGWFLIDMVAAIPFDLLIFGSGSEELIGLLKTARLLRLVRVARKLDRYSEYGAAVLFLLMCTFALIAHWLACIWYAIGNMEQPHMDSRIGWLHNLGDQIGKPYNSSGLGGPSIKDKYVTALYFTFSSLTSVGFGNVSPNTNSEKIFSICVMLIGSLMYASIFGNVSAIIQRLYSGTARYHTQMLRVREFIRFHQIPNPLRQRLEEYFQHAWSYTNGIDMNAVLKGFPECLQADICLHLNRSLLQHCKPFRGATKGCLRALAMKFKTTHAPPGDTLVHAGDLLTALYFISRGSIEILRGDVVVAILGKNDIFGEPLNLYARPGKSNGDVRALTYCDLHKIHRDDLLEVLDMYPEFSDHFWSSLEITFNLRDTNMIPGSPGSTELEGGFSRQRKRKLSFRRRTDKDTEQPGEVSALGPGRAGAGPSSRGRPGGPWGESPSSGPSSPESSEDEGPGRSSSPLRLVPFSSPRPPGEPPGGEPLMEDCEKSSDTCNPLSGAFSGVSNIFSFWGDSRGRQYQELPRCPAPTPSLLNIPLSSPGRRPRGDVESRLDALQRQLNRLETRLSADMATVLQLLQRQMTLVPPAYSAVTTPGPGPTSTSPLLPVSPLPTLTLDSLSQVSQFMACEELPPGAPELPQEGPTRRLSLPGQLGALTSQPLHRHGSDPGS
- experiment.description: hERG-encoded potassium channel inhibition test (whole-cell patch clamp, tail current)
- Format: cell-based
- study.conditions: HEK cells expressing the hERG-encoded channel; tail current after step from +40 mV to -50 mV; room temperature (~20 °C); read-out: IC50
pIC50: −log10 of the molar value.
recorded.endpoint: pIC50

compound: CC(=O)Nc1ccc(Cl)cc1OCC(O)CNC1CCN(Cc2ccc(Cl)cc2)CC1 (stereo not drawn)
value.observed: 7.00
--
compound: CC(=O)Nc1ccccc1OCC(O)CNC1CCN(Cc2ccc(Cl)cc2)CC1 (stereo not drawn)
value.observed: 6.52
--
compound: COc1ccc(NC(C)=O)c(OC[C@@](C)(O)CNC2CCN(Cc3ccc(Cl)cc3)CC2)c1
value.observed: 6.52
